- Test system: CN0375-F725-PDC KRAS spheroid viability;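 further: spheroids exposed to agents for 7 days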
- testSummary: Anticancer human tumor CN0375-F725-PDC patient-derived colon carcinoma cell line growth inhibition [KRAS2]
- details: second compound 0.0316 µM; first compound 0.316 µM; active compounds read low; spheroids with HUVEC and MSC
valueType: viability, T/C (%)
Your answer should be a plain number; it is taken to be in %.

Answered cases to consult:
| molecule | valueType | experimentalResult |
| --- | --- | --- |
| CC(C)NCC(C(=O)N1CCN(c2ncnc3c2C(C)CC3O)CC1)c1ccc(Cl)cc1 (configuration not stated) + C=CC(=O)N1CCN(c2nc(OCC3CCCN3C)nc3c2CCN(c2cccc4cccc(C)c24)C3)CC1CC#N | viability, T/C | 101 |
| CC1(C)CCC(CN2CCN(c3ccc(C(=O)NS(=O)(=O)c4ccc(NCC5CCOCC5)c([N+](=O)[O-])c4)c(Oc4cnc5[nH]ccc5c4)c3)CC2)=C(c2ccc(Cl)cc2)C1 + C=CC(=O)N1CCN(c2nc(OCC3CCCN3C)nc3c2CCN(c2cccc4cccc(C)c24)C3)CC1CC#N | viability, T/C | 101 |
| COc1cc(Nc2ncc3c(n2)-c2ccc(Cl)cc2C(c2c(F)cccc2OC)=NC3)ccc1C(=O)O + C=CC(=O)N1CCN(c2nc(OCC3CCCN3C)nc3c2CCN(c2cccc4cccc(C)c24)C3)CC1CC#N | viability, T/C | 91.8 |
| COc1cc2nccc(Oc3ccc(NC(=O)C4(C(=O)Nc5ccc(F)cc5)CC4)cc3)c2cc1OC + C=CC(=O)N1CCN(c2nc(OCC3CCCN3C)nc3c2CCN(c2cccc4cccc(C)c24)C3)CC1CC#N | viability, T/C | 91.3 |
| CC1COCCN1c1cc(-c2ccnn2C)c2ccnc(-c3ccn[nH]3)c2n1 (configuration not stated) + C=CC(=O)N1CCN(c2nc(OCC3CCCN3C)nc3c2CCN(c2cccc4cccc(C)c24)C3)CC1CC#N | viability, T/C | 84.6 |

Query: Can you look up the measured viability, T/C of CC1OCC2(CCN(c3cnc(Sc4ccnc(N)c4Cl)c(N)n3)CC2)C1N (configuration not stated) + C=CC(=O)N1CCN(c2nc(OCC3CCCN3C)nc3c2CCN(c2cccc4cccc(C)c24)C3)CC1CC#N for me?
Result: 77.1

Query: Name the reported viability, T/C value associated with the molecule CC(=O)OC12COC1CC(O)C1(C)C(=O)C(O)C3=C(C)C(OC(=O)C(O)C(NC(=O)OC(C)(C)C)c4ccccc4)CC(O)(C(OC(=O)c4ccccc4)C21)C3(C)C (configuration not stated) + C=CC(=O)N1CCN(c2nc(OCC3CCCN3C)nc3c2CCN(c2cccc4cccc(C)c24)C3)CC1CC#N
Result: 82.5

Query: Sample COC(=O)c1ccc2c(C(=Nc3ccc(N(C)C(=O)CN4CCN(C)CC4)cc3)c3ccccc3)c(O)[nH]c2c1 + C=CC(=O)N1CCN(c2nc(OCC3CCCN3C)nc3c2CCN(c2cccc4cccc(C)c24)C3)CC1CC#N — what was its viability, T/C?
Result: 91.1

Query: May I ask what viability, T/C has been recorded for O=C(c1cc(Cc2n[nH]c(=O)c3ccccc23)ccc1F)N1CCN(C(=O)C2CC2)CC1 + C=CC(=O)N1CCN(c2nc(OCC3CCCN3C)nc3c2CCN(c2cccc4cccc(C)c24)C3)CC1CC#N ?
Result: 99

Query: So what's the measured viability, T/C for this one? Cn1nccc1Nc1nccc(-c2cc3c(s2)C(C)(C)N(CCN2CCOCC2)C3=O)n1 + C=CC(=O)N1CCN(c2nc(OCC3CCCN3C)nc3c2CCN(c2cccc4cccc(C)c24)C3)CC1CC#N
Result: 76.9

Query: What value of viability, T/C has been recorded for this entry: CCNC(=O)CC1N=C(c2ccc(Cl)cc2)c2cc(OC)ccc2-n2c(C)nnc21 (configuration not stated) + C=CC(=O)N1CCN(c2nc(OCC3CCCN3C)nc3c2CCN(c2cccc4cccc(C)c24)C3)CC1CC#N
Result: 83.2

Query: # get_value(readout='viability, T/C', item= CCN1CCN(Cc2ccc(Nc3ncc(F)c(-c4cc(F)c5nc(C)n(C(C)C)c5c4)n3)nc2)CC1 + C=CC(=O)N1CCN(c2nc(OCC3CCCN3C)nc3c2CCN(c2cccc4cccc(C)c24)C3)CC1CC#N )
Result: 111
